Data origin: patent US20050277575A1

# system.tested: S100A4 (Homo sapiens, UniProt P26447)
# Construct: GST (N); made in house; host or cells: E. coli ER2507
# Sequence (P26447 whole entry): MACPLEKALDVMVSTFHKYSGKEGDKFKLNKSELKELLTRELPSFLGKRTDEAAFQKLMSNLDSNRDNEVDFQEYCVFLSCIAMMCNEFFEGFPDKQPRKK
# protocol.summary: Modulation of S100A4 dependent tPA-mediated conversion of plasminogen to plasmin by peptides and chimera
# Assay type: biochemical
# test.conditions: peptides titrated 0.1-100 μM; 1 μM S100A4; read-out: IC50 for inhibition of accelerating effect of S100A4 on t-PA-dependent conversion of plasminogen to plasmin
pIC50: −log10 of the molar value.
property: pIC50

INSERT INTO measurements (substance, property, observed_measurement) VALUES
  ('Ac-AGLREVYGASLASYMERW-NH2 [SEQ ID 6, Ac-AGLREVYGASLASYMERW-amide]', 'pIC50', 5.22);
